tgt: human DGKζ (Homo sapiens)
Construct: TVMV protease cleavage site (C); Hexa-His (C); made in house; host or cells: Sf9 insect cells (baculovirus, Bac-to-Bac)
Sequence (Q13574 with tags, fused parts or gaps isoform Q13574-4): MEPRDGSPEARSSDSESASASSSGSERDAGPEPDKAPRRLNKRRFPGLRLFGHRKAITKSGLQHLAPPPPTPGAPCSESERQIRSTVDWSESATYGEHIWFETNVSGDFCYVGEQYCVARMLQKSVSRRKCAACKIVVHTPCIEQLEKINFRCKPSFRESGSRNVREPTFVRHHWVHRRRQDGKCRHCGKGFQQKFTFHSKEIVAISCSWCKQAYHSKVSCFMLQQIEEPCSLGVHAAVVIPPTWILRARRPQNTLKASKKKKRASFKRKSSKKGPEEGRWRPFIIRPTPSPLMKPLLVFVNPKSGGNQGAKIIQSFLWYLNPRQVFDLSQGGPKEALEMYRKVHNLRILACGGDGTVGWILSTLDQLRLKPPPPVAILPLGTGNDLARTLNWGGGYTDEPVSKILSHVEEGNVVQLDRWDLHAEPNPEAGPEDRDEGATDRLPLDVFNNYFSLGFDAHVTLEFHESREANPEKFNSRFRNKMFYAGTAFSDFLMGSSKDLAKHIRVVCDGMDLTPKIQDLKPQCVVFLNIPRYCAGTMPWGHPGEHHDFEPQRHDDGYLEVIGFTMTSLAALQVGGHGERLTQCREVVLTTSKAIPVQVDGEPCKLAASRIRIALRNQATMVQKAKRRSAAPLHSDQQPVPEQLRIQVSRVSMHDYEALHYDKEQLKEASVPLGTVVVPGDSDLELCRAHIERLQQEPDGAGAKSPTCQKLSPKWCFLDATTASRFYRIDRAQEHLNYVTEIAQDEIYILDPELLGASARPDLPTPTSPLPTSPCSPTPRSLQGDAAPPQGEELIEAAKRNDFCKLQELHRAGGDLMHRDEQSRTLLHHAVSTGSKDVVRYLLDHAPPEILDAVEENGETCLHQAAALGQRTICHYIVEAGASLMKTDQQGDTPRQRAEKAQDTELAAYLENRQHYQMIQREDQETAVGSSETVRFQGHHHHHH
measurement-protocol: DGKζ LIPGLO assay (extruded liposome substrate), in vitro DGK inhibition
Format: biochemical
study-conditions: liposome (LIPGLO) assay; read-out: DGKz LIPGLO IC50
quantity-measured: IC50 (nM)

CC[C@@H]1CN(c2c(F)c(=O)n(C)c3ccc(C#N)nc23)CCN1C(c1ccc(Cl)cc1)c1ccc(Cl)cc1 [Example 178] = 390
CCC(c1ccc(OC(F)(F)F)cc1F)N1C[C@H](C)N(c2cc(=O)n(C)c3ccc(C#N)nc23)C[C@H]1C (single isomer, unassigned) [Example 441] = 2400
Cn1c(=O)c(C#N)c(N2CCN(C(c3ccc(F)cc3)c3ccc(F)cc3)C(C(=O)NC3CC3)C2)c2nc(C#N)ccc21 (single isomer, unassigned) [Example 61] = 170000
C[C@@H]1CN(c2cc(=O)n(C)c3ccc(C#N)nc23)[C@@H](C)CN1C(c1ccc(O)cc1)C(F)(F)F (stereo partly shown) [Example 626] = 7900
C[C@@H]1CN(c2cc(=O)n(C)c3ccc(C#N)nc23)[C@@H](C)CN1C(c1ccc(F)cc1)c1cccc(N2CCOCC2)c1 (single isomer, unassigned) [Example 673] = 2300
C[C@H]1CN(c2c(C#N)c(=O)n(C)c3ccc(C#N)nc23)CCN1C(c1ccc(F)cc1)c1ccc(F)cc1 [Example 38] = 1800
Cc1ccc(C(c2ccc(F)cc2)N2C[C@H](C)N(c3c(F)c(=O)n(C)c4ccc(C#N)nc34)C[C@H]2C)cc1 (stereo partly shown) [Example 332] = 1000

---

tgt: human DGKα (Homo sapiens, UniProt P23743)
Construct: TVMV protease cleavage site (C); Hexa-His (C); made in house; host or cells: Sf9 insect cells (baculovirus, Bac-to-Bac)
Sequence (P23743 with tags, fused parts or gaps): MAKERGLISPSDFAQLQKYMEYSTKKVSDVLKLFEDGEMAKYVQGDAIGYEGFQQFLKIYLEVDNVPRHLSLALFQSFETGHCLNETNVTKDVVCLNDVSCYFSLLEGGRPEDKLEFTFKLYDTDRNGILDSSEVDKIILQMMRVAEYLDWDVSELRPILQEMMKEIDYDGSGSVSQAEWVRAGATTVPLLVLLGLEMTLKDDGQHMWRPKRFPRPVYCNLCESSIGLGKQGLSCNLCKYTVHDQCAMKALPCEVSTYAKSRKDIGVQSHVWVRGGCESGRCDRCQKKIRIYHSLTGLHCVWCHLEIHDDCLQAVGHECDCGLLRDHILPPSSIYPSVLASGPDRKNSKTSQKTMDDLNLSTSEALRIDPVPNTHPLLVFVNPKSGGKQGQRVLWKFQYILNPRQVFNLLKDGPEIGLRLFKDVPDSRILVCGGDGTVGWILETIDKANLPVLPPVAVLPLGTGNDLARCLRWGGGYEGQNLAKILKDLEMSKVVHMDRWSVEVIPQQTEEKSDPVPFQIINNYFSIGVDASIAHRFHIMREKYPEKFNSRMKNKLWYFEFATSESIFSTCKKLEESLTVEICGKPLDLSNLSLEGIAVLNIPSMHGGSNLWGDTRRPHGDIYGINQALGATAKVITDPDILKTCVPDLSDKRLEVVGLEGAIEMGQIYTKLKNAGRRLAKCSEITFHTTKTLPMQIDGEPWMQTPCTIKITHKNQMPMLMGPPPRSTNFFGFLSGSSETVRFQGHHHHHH
measurement-protocol: DGKα LIPGLO assay (extruded liposome substrate), in vitro DGK inhibition
Type: biochemical
study-conditions: liposome (LIPGLO) assay; read-out: DGKa LIPGLO IC50
pIC50: −log10 of the molar value.
quantity-measured: pIC50

CC(c1cc(C(C)(C)C)on1)N1C[C@H](C)N(c2cc(=O)n(C)c3ccc(C#N)nc23)C[C@H]1C (single isomer, unassigned) [Example 1283] = 5.39
C[C@@H]1CN(c2cc(=O)n(C)c3ccc(C#N)nc23)[C@@H](C)CN1C(c1ccc(F)cn1)c1cccc2c1OC(C)(C)C2 (single isomer, unassigned) [Example 467] = 6.01
Cn1c(=O)cc(N2CCN(C(c3ccc(F)cc3)c3ccc(F)cc3)CC2C(=O)NC2CC2)c2nc(C#N)ccc21 (single isomer, unassigned) [Example 139] = 3.62
C[C@@H]1CN(c2cc(=O)n(C)c3ccc(C#N)nc23)[C@@H](C)CN1C(c1ccc(OC(F)(F)F)cc1F)C1CC1 (single isomer, unassigned) [Example 480] = 5.80
COCCOC[C@@H]1CN(c2cc(=O)n(C)c3ccc(C#N)nc23)[C@@H](C)CN1C(C)c1ccc(OC(F)(F)F)cc1 (single isomer, unassigned) [Example 1406] = 5.57
CC[C@H]1CN(C(C)c2ccc(F)cc2F)[C@H](CC)CN1c1cc(=O)n(C)c2ccc(C#N)nc12 (single isomer, unassigned) [Example 1056] = 6.06
Cc1ncc(C(c2ccc(Cl)cc2)N2CCN(c3c(C#N)c(=O)n(C)c4ccc(C#N)nc34)C[C@H]2C)cn1 (stereo partly drawn) [Example 314] = 5.07
CCC(c1ccc(C2CC2)cc1)N1C[C@H](C)N(c2cc(=O)n(C)c3ccc(C#N)nc23)C[C@H]1C (single isomer, unassigned) [Example 1221] = 6.07
C[C@@H]1CN(c2cc(=O)n(C)c3ccc(C#N)nc23)[C@@H](C)CN1C(c1cccc(F)c1)c1ccccn1 (single isomer, unassigned) [Example 374] = 6.24
C[C@@H]1CN(c2cc(=O)n(C)c3ccc(C#N)nc23)[C@@H](C)CN1C(c1ccc(F)cc1)c1cccnn1 (single isomer, unassigned) [Example 383] = 5.25
C[C@@H]1CN(c2cc(=O)n(C)c3ccc(C#N)nc23)[C@@H](C)CN1Cc1ccc(C2(C#N)CC2)cc1 = 5.55
CC[C@@H]1CN(c2cc(=O)n(C)c3ccc(C#N)nc23)[C@@H](C)CN1C(c1ccc(F)cc1)c1ccon1 (single isomer, unassigned) [Example 1115] = 7.08
